Entries and their measured melting point follow.
result-type: melting point

compound	result-type	obs-value
CC1(C)OC[C@@H](CNc2ccc3cc(OCC4CC4)ccc3c2)O1	melting point	108 to 109 °C
CCOC(=O)c1ncc2[nH]c3ccc(-c4ccccc4)cc3c2c1C	melting point	241 to 242 °C
CCNC(=O)c1cc([N+](=O)[O-])ccc1Oc1cncc(Cl)c1	melting point	165 to 167 °C
O=C(O)c1cnc(C(=O)O)c2ccccc12	melting point	216 °C
CC1(C)CCCSc2cc(Br)ccc21	melting point	81 to 82 °C
Nc1ncc(Br)cc1Cl	melting point	94 to 96 °C
COc1c(C)c(C)c(OC)c(C(O)(c2cccnc2)C2CCCCC2)c1C (stereo not drawn)	melting point	134 to 135 °C
O=C1C=CC(=O)N1c1cccc(Oc2cccc(Oc3cccc(N4C(=O)C=CC4=O)c3)c2)c1	melting point	138 to 140 °C
ClCCN1C2CCC1CC(c1ccc3ccccc3c1)C2 (stereo not drawn)	melting point	84 to 88 °C
O=C(CCl)N1CCC(Cc2ccc(F)cc2)CC1	melting point	85 to 87 °C
CC(=O)NCC1OCC(Cc2ccc(Cl)cc2)CO1 (stereo not drawn)	melting point	95 °C
COC(=O)CC1CCN(CCC=C(c2ccccc2)c2ccccc2)C1 (stereo not drawn)	melting point	95.5 to 97.5 °C
N#CNC(=NCCO[N+](=O)[O-])c1cncc(N)c1	melting point	121 °C
O=[N+]([O-])c1ccc2c(c1OS(=O)(=O)C(F)(F)F)CCC2	melting point	44 to 46 °C
Cc1[nH]c2ccccc2c1C(=O)CCn1ccnc1	melting point	196 to 197 °C
CC1=C(N2CC2)C(=O)c2c([nH]c(CO)c2C)C1=O	melting point	224 to 225 °C
COc1ccc2c(c1)CCc1c(cccc1C(=O)O)S2	melting point	185 to 187 °C
N#CN1CCN2c3ccccc3Cc3ccccc3C2C1 (stereo not drawn)	melting point	164 to 166 °C
CSc1ccc2c(c1)C(O)(C1CCN(C)CC1)c1ccc(F)cc1S2 (stereo not drawn)	melting point	180 to 189 °C
CSc1nccc(CC(=O)c2cccc(Br)c2)n1	melting point	98 to 101 °C
CS(=O)(=O)Oc1ccc(-c2c3ccccc3c(C(F)(F)F)c3sc4ccccc4c23)cc1	melting point	215 to 216 °C
O=C(CCCCCSc1ccc(Cl)cc1)NO	melting point	83 to 85 °C
CCn1ncc2c1ncc1c(OCCN(C)C)nc3ncnn3c12	melting point	149 to 150 °C

Data provenance is a melting point compilation (Tetko et al.; mined from patent text by program, amines drawn as free bases though some values may be those of a salt).
